subject-of-test: Recombinant human MAO-A (Homo sapiens)
Sequence (P21397 1-527): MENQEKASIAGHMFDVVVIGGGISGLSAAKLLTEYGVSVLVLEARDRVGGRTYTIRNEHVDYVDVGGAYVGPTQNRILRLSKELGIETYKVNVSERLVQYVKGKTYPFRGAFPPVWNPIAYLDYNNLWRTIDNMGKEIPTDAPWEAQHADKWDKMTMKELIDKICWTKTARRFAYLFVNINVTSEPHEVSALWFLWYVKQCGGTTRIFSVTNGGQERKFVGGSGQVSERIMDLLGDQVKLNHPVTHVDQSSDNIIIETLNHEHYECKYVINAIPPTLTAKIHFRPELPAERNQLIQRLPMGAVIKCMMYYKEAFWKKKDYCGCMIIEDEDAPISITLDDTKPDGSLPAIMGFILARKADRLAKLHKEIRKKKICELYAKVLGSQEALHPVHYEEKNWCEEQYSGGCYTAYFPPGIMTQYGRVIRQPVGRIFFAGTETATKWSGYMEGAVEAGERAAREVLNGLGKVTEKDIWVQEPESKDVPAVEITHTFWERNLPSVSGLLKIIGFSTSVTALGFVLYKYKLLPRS
protocol: Inhibition of MAO-A
Listed here: items and their measured IC50.
assay-metric: IC50

• Cc1ccc2c(c1)C(=O)C1(CCCC1)N2Cc1ccccc1 [Compound 11b] = > 40 µM
• O=C1c2ccccc2N(Cc2ccc(Br)cc2)C12CCCC2 [Compound 11f] = 17.2 µM
• O=C1c2ccccc2N(Cc2ccccc2Br)C12CCCC2 [Compound 11k] = 9.01 µM
• O=C1c2ccccc2NC12CCCC2 [Compound 10a] = 20.8 µM
• O=C1c2cc(Br)ccc2N(Cc2ccccc2)C12CCCC2 [Compound 11d] = 14 µM
• Cc1ccc2c(c1)C(=O)C1(CCCC1)N2 [Compound 10b] = > 40 µM

* * *

subject-of-test: MAO-B (Homo sapiens, UniProt P27338)
protocol: Inhibition of MAO-B
Format: biochemical
condition: MAO-B over MAO-A
assay-metric: SI (MAO), selectivity index = IC50 (MAO-A)/IC50(MAO-B)

* O=C1c2cc(Br)ccc2N(Cc2ccccc2)C12CCCC2 [Compound 11d] | 5.00
* O=C1c2ccccc2N(Cc2ccc(Br)cc2)C12CCCC2 [Compound 11f] | 11.91
* O=C1c2ccccc2NC12CCCC2 [Compound 10a] | 1.34
* O=C1c2ccccc2N(Cc2ccccc2Br)C12CCCC2 [Compound 11k] | 0.63

* * *

subject-of-test: MAO-B (Homo sapiens, UniProt P27338)
Sequence (P27338 1-520): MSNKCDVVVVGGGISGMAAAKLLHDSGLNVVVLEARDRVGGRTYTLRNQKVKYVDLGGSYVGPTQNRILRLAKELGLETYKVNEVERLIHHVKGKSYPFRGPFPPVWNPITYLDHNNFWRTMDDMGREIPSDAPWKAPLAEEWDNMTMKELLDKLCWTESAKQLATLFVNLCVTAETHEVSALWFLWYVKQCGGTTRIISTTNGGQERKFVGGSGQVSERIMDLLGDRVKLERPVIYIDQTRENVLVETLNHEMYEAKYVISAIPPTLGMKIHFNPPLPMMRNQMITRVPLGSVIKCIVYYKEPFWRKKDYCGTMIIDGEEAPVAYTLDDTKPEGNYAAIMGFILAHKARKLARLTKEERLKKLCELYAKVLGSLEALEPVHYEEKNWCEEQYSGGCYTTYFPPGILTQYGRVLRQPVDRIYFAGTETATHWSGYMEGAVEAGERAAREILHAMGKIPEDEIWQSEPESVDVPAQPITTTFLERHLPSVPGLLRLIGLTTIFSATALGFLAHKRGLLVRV
protocol: Inhibition of MAO-B
Type: biochemical
condition: read-out: Residual activities at 10 μM (%) MAO-B
Decide using remaining activity at 10 µM alone. Strictly below 60%: True. Equal to or above 60%: False.

- Cc1ccc2c(c1)C(=O)C1(CCCC1)N2Cc1ccccc1 [Compound 11b]: True
- O=C1c2ccccc2NC12CCCC2 [Compound 10a]: True
- O=C1c2ccccc2N(Cc2ccc(Br)cc2)C12CCCC2 [Compound 11f]: True
- Cc1ccc2c(c1)C(=O)C1(CCCC1)N2 [Compound 10b]: False
- O=C1c2cc(Br)ccc2N(Cc2ccccc2)C12CCCC2 [Compound 11d]: True

Where do these numbers come from? They come from paper PMC10442599.
